Tested On: UniProt:Q72547
Assay Text: Inhibition of HIV1 recombinant reverse transcriptase associated catalytically active RNase H domain assessed as reduction in DNA 3' end directed cleavage using HTS-2 RNA/DNA duplex substrate by fluorescence assay
Outcome Measure: pIC50
Keep it numeric: pIC50 is minus log10 of the concentration in mol/L.

Some compounds with known pIC50 results, for comparison:
>  <Smiles Code>
O=C1Cc2cc(Cc3ccc(-c4ccc(F)cc4F)cc3)ccc2C(=O)N1O

>  <Outcome Measure>
pIC50

>  <Meas Value>
6.05

$$$$
>  <Smiles Code>
NS(=O)(=O)c1ccc(-c2ccc(Cc3ccc4c(c3)CC(=O)N(O)C4=O)cc2)cc1

>  <Outcome Measure>
pIC50

>  <Meas Value>
6.30

$$$$

Ask: What does the record list as pIC50 for O=C1Cc2cc(Cc3ccc(-c4ccc(F)cc4)cc3)ccc2C(=O)N1O ?
Reply: 5.31

Ask: # iterate: O=C1Cc2cc(Cc3ccc(-c4ccccc4)cc3)ccc2C(=O)N1O
Reply: 6.22

Ask: # iterate: O=C1Cc2cc(Cc3ccc(-c4cccs4)cc3)ccc2C(=O)N1O
Reply: 5.70

Ask: # iterate: O=C1Cc2cc(Cc3ccc(F)cc3)ccc2C(=O)N1O
Reply: 6.10

Ask: # iterate: O=C1Cc2cc(Cc3ccc(C(F)(F)F)cc3)ccc2C(=O)N1O
Reply: 5.96

Ask: # iterate: N#Cc1ccc(-c2ccc(Cc3ccc4c(c3)CC(=O)N(O)C4=O)cc2)cc1
Reply: 6.05

Ask: # iterate: O=C1Cc2cc(Cc3ccccc3)ccc2C(=O)N1O
Reply: 5.85

Ask: # iterate: O=C1Cc2cc(Cc3ccc(C4CC4)cc3)ccc2C(=O)N1O
Reply: 6.10

Ask: # iterate: COc1ccc(-c2ccc(Cc3ccc4c(c3)CC(=O)N(O)C4=O)cc2)cc1F
Reply: 5.74
